- TEST_NAME: Solubility of the compound at pH 6.8 incubated for 1 hrs in the presence of taurocholic acid by UHPLC/MS analysis
- Format: physicochemical
- ASSAY_SETUP: medium containing taurocholic acid
Starred links: 1 amine or outer side, 2 acyl side, 3 side chain; linkers in the order of their positions; H or OH if unused. Positions of bridges follow the written chain, without caps; N, C: chain ends. Non-standard residues stand in square brackets, D forms with d. Residues, ends and D or L forms follow the SMILES beside them. NHCH2CH2SCH2CO = O=C(CSCCN[*:1])[*:2]; NMeF = CN[C@@H](Cc1ccccc1)C(=O)O; hCha = N[C@@H](CCC1CCCCC1)C(=O)O; Pen = CC(C)(S)[C@H](N)C(=O)O; αMeP = C[C@@]1(C(=O)O)CCCN1
OBSERVABLE: solubility at 1 h (µM)
Use µM as the unit, but write only the number.

1. COC(=O)[C@H]1NC(=O)[C@H](C)NC(=O)[C@H](Cc2ccccc2)N(C)C(=O)[C@H](CC(C)C)NC(=O)[C@H](CCC2CCCCC2)NC(=O)[C@H](CC(C)C)NC(=O)[C@H](C(C)C)NC(=O)[C@]2(C)CCCN2C(=O)[C@H](C(C)C)NC(=O)[C@H](Cc2ccccc2)NC(=O)CSC1(C)C ({CH2CO}-FV[αMeP]VL[hCha]L[NMeF]A[Pen]-OMe; thioether N-10) :: 10

Task: Which measured solubility at 1 h value corresponds to CC(C)C[C@@H]1NC(=O)[C@H](C(C)C)NC(=O)[C@@H]2CCCN2C(=O)[C@H](C(C)C)NC(=O)[C@H](Cc2ccccc2)NC(=O)CSCCNC(=O)CNC(=O)[C@H](Cc2ccccc2)N(C)C(=O)[C@H](CC(C)C)NC(=O)[C@H](Cc2c[nH]c3ccccc23)NC1=O (cyclo(FVPVLWL[NMeF]G[NHCH2CH2SCH2CO])) ?
Result: 26

###

- Tested on: Human immunodeficiency virus 1
- TEST_NAME: Anti-HIV activity against HIV-1 3B strain infected in human MT4 cells assessed as inhibition of virus-induced cell death preincubated with compound for 1 hrs followed by viral infection and measured after 4 days by MTT assay
- Assay type: functional, organism-based
- ASSAY_SETUP: Human immunodeficiency virus 1, 3B
Starred links: 1 amine or outer side, 2 acyl side, 3 side chain; linkers in the order of their positions; H or OH if unused. Non-standard residues stand in square brackets, D forms with d. Residues, ends and D or L forms follow the SMILES beside them. 1Nal = N[C@@H](Cc1cccc2ccccc12)C(=O)O; NHCH2CH2SCH2CO = O=C(CSCCN[*:1])[*:2]; NMeF = CN[C@@H](Cc1ccccc1)C(=O)O; αMeV = CC(C)[C@](C)(N)C(=O)O
OBSERVABLE: pEC50
Units for pEC50: none; it is -log10 of a concentration expressed in mol/L.

Task: Which measured pEC50 value corresponds to CC(C)C[C@@H]1NC(=O)[C@](C)(C(C)C)NC(=O)[C@@H]2CCCN2C(=O)[C@H](C(C)C)NC(=O)[C@H](Cc2ccccc2)NC(=O)CSCCNC(=O)[C@H](Cc2ccccc2)N(C)C(=O)[C@H](CC(C)C)NC(=O)[C@H](Cc2cccc3ccccc23)NC1=O (cyclo([1Nal]L[NMeF][NHCH2CH2SCH2CO]FVP[αMeV]L)) ?
Result: 6.92

###

- TEST_NAME: Metabolic stability in rat liver microsomes incubated for 30 mins in the presence of NADPH by LC-MS/MS analysis
- Assay type: ADME, Microsome
- ASSAY_SETUP: read-out: Stability
Starred links: 1 amine or outer side, 2 acyl side, 3 side chain; linkers in the order of their positions; H or OH if unused. Positions of bridges follow the written chain, without caps; N, C: chain ends. Non-standard residues stand in square brackets, D forms with d. Residues, ends and D or L forms follow the SMILES beside them. NHCH2CH2SCH2CO = O=C(CSCCN[*:1])[*:2]; NMeF = CN[C@@H](Cc1ccccc1)C(=O)O; hCha = N[C@@H](CCC1CCCCC1)C(=O)O; X1 = CC(C)(CN[*:1])SCC(=O)[*:2]; X2 = CC(C)(SCCN[*:1])C(=O)[*:2]; Pen = CC(C)(S)[C@H](N)C(=O)O; αMeP = C[C@@]1(C(=O)O)CCCN1
OBSERVABLE: remaining at 0.5 h (%)
Use % as the unit, but write only the number.

Some solved entries appear below for comparison.
1. CC(C)C[C@@H]1NC(=O)[C@H](C(C)C)NC(=O)[C@]2(C)CCCN2C(=O)[C@H](C(C)C)NC(=O)[C@H](Cc2ccccc2)NC(=O)CSC(C)(C)CNC(=O)[C@H](C)NC(=O)[C@H](Cc2ccccc2)N(C)C(=O)[C@H](CC(C)C)NC(=O)[C@H](CCC2CCCCC2)NC1=O (cyclo(A[X1]FV[αMeP]VL[hCha]L[NMeF])) :: 60
2. CC(C)C[C@@H]1NC(=O)[C@H](C(C)C)NC(=O)[C@]2(C)CCCN2C(=O)[C@H](C(C)C)NC(=O)[C@H](Cc2ccccc2)NC(=O)C(C)(C)SCCNC(=O)[C@H](C)NC(=O)[C@H](Cc2ccccc2)N(C)C(=O)[C@H](CC(C)C)NC(=O)[C@H](CCC2CCCCC2)NC1=O (cyclo(A[X2]FV[αMeP]VL[hCha]L[NMeF])) :: 46
3. CC(C)C[C@@H]1NC(=O)[C@H](C(C)C)NC(=O)[C@@H]2CCCN2C(=O)[C@H](C(C)C)NC(=O)[C@H](Cc2ccccc2)NC(=O)CSCCNC(=O)CNC(=O)[C@H](Cc2ccccc2)N(C)C(=O)[C@H](CC(C)C)NC(=O)[C@H](Cc2c[nH]c3ccccc23)NC1=O (cyclo(FVPVLWL[NMeF]G[NHCH2CH2SCH2CO])) :: 29

Task: Which measured remaining at 0.5 h value corresponds to COC(=O)[C@H]1NC(=O)[C@H](C)NC(=O)[C@H](Cc2ccccc2)N(C)C(=O)[C@H](CC(C)C)NC(=O)[C@H](CCC2CCCCC2)NC(=O)[C@H](CC(C)C)NC(=O)[C@H](C(C)C)NC(=O)[C@]2(C)CCCN2C(=O)[C@H](C(C)C)NC(=O)[C@H](Cc2ccccc2)NC(=O)CSC1(C)C ({CH2CO}-FV[αMeP]VL[hCha]L[NMeF]A[Pen]-OMe; thioether N-10) ?
Result: 63

Task: Which measured remaining at 0.5 h value corresponds to CC(C)C[C@@H]1NC(=O)[C@H](C(C)C)NC(=O)[C@]2(C)CCCN2C(=O)[C@H](C(C)C)NC(=O)[C@H](Cc2ccccc2)NC(=O)CSCCNC(=O)[C@H](C)NC(=O)[C@H](Cc2ccccc2)N(C)C(=O)[C@H](CC(C)C)NC(=O)[C@H](CCC2CCCCC2)NC1=O (cyclo(A[NHCH2CH2SCH2CO]FV[αMeP]VL[hCha]L[NMeF])) ?
Result: 53

###

- Tested on: Human immunodeficiency virus 1
- TEST_NAME: Anti-HIV activity against HIV-1 3B strain infected in human MT4 cells assessed as inhibition of virus-induced cell death preincubated with compound for 1 hrs followed by viral infection and measured after 4 days by MTT assay
- Type: functional, organism-based
- ASSAY_SETUP: Human immunodeficiency virus 1, 3B
pEC50: −log10 of the molar value. Starred links: 1 amine or outer side, 2 acyl side, 3 side chain; linkers in the order of their positions; H or OH if unused. Non-standard residues stand in square brackets, D forms with d. Residues, ends and D or L forms follow the SMILES beside them. 1Nal = N[C@@H](Cc1cccc2ccccc12)C(=O)O; NHCH2CH2SCH2CO = O=C(CSCCN[*:1])[*:2]; NMeF = CN[C@@H](Cc1ccccc1)C(=O)O; hCha = N[C@@H](CCC1CCCCC1)C(=O)O; hPhe = N[C@@H](CCc1ccccc1)C(=O)O; X1 = CC(C)(CN[*:1])SCC(=O)[*:2]; αMeP = C[C@@]1(C(=O)O)CCCN1
Where pEC50 equals or exceeds 7, the correct label is true (1); where it does not, the label is false (0).

Example cases with answers are listed next.
1. CC(C)C[C@@H]1NC(=O)[C@H](C(C)C)NC(=O)[C@]2(C)CCCN2C(=O)[C@H](C(C)C)NC(=O)[C@H](Cc2ccccc2)NC(=O)CSCCNC(=O)[C@H](Cc2ccccc2)N(C)C(=O)[C@H](CC(C)C)NC(=O)[C@H](CCC2CCCCC2)NC1=O (cyclo(FV[αMeP]VL[hCha]L[NMeF][NHCH2CH2SCH2CO])) :: true (1)
2. CC(C)C[C@@H]1NC(=O)[C@H](C(C)C)NC(=O)[C@]2(C)CCCN2C(=O)[C@H](C(C)C)NC(=O)[C@H](Cc2ccccc2)NC(=O)CSCCNC(=O)[C@H](Cc2ccccc2)N(C)C(=O)[C@H](CC(C)C)NC(=O)[C@H](CCc2ccccc2)NC1=O (cyclo(FV[αMeP]VL[hPhe]L[NMeF][NHCH2CH2SCH2CO])) :: true (1)
3. CC(C)C[C@@H]1NC(=O)[C@H](C(C)C)NC(=O)[C@@H]2CCCN2C(=O)[C@H](C(C)C)NC(=O)[C@H](Cc2ccccc2)NC(=O)CSCCNC(=O)[C@H](Cc2ccccc2)N(C)C(=O)[C@H](CC(C)C)NC(=O)[C@H](Cc2cccc3ccccc23)NC1=O (cyclo([1Nal]L[NMeF][NHCH2CH2SCH2CO]FVPVL)) :: false (0)
4. CC(C)C[C@@H]1NC(=O)[C@H](C(C)C)NC(=O)[C@]2(C)CCCN2C(=O)[C@H](C(C)C)NC(=O)[C@H](Cc2ccccc2)NC(=O)CSCCNC(=O)[C@H](Cc2ccccc2)NC(=O)[C@H](Cc2ccccc2)N(C)C(=O)[C@H](CC(C)C)NC(=O)[C@H](CCC2CCCCC2)NC1=O (cyclo(FV[αMeP]VL[hCha]L[NMeF]F[NHCH2CH2SCH2CO])) :: true (1)
5. CC(C)C[C@@H]1NC(=O)[C@H](C(C)C)NC(=O)[C@]2(C)CCCN2C(=O)[C@H](C(C)C)NC(=O)[C@H](Cc2ccccc2)NC(=O)CSC(C)(C)CNC(=O)[C@H](C)NC(=O)[C@H](Cc2ccccc2)N(C)C(=O)[C@H](CC(C)C)NC(=O)[C@H](CCC2CCCCC2)NC1=O (cyclo(A[X1]FV[αMeP]VL[hCha]L[NMeF])) :: true (1)

Turning now to a further record.
Task: Form field: pEC50 at least 7? Entry: CC(C)C[C@@H]1NC(=O)[C@H](C(C)C)NC(=O)[C@]2(C)CCCN2C(=O)[C@H](C(C)C)NC(=O)[C@H](Cc2ccccc2)NC(=O)CSCCNC(=O)CNC(=O)[C@H](Cc2ccccc2)N(C)C(=O)[C@H](CC(C)C)NC(=O)[C@H](CCC2CCCCC2)NC1=O (cyclo(FV[αMeP]VL[hCha]L[NMeF]G[NHCH2CH2SCH2CO]))
Result: true (1)
